src = patent US10239925B2

target: HLA-A*02:01 (Homo sapiens, UniProt P04439, D140Y/D185E/D98H/E176V/E277Q/G131W/G231S/I119V/I121R/I166T/I218V/L300P/L318F/N151K/N90K/P208A/P217A/Q86G/Q94H/R138H/R169H/T345S); experiment: MHC binding assay (UV-ligand exchange, anti-β2m ELISA, peptide exchange yield); details: binding to HLA-A*02:01
readout: Peptide exchange (MHC class I binding score, peptide exchange yield)

Here's what some known entries look like.
[
  {
    "substance": "457 (SLLPGNLVEKV; listed as Homo sapiens) [compound 457]",
    "assay.value": "“+++” (>50 = +++)"
  },
  {
    "substance": "467 (FLAKDFNFL; listed as Homo sapiens) [compound 467]",
    "assay.value": "“+++” (>50 = +++)"
  },
  {
    "substance": "147 (SLLEAVSFL; listed as Homo sapiens) [compound 147]",
    "assay.value": "“+++” (>50 = +++)"
  },
  {
    "substance": "325 (FIMPATVADATAV; listed as Homo sapiens) [compound 325]",
    "assay.value": "“+++” (>50 = +++)"
  },
  {
    "substance": "508 (ILAQEQLVVGV; listed as Homo sapiens) [compound 508]",
    "assay.value": "“+++” (>50 = +++)"
  },
  {
    "substance": "31 (YLAPELFVNV; listed as Homo sapiens) [compound 31]",
    "assay.value": "“++” (>20% = ++)"
  },
  {
    "substance": "133 (KVLSNIHTV; listed as Homo sapiens) [compound 133]",
    "assay.value": "“++” (>20% = ++)"
  },
  {
    "substance": "597 (KLLEGQVIQL; listed as Homo sapiens) [compound 597]",
    "assay.value": "“+++” (>50 = +++)"
  }
]

Enquiry: Quick one: Peptide exchange (MHC class I binding score, peptide exchange yield) of 447 (QLVPALAKV; listed as Homo sapiens) [compound 447] ?
Return: “++” (>20% = ++)
